Measured CDMF75 IC15 values are reported for all entries that follow.
target: bovine cardiac myofibrils (full-length cardiac myosin ATPase in the native sarcomere) (Bos taurus (Bovine), UniProt Q9BE39); assay: Skinned bovine cardiac myofibril ATPase assay (PK/LDH-coupled); assay type: biochemical; details: Ca2+ activating to 75% of maximal rate, concentration giving 15% inhibition
Sequence (Q9BE39 whole entry): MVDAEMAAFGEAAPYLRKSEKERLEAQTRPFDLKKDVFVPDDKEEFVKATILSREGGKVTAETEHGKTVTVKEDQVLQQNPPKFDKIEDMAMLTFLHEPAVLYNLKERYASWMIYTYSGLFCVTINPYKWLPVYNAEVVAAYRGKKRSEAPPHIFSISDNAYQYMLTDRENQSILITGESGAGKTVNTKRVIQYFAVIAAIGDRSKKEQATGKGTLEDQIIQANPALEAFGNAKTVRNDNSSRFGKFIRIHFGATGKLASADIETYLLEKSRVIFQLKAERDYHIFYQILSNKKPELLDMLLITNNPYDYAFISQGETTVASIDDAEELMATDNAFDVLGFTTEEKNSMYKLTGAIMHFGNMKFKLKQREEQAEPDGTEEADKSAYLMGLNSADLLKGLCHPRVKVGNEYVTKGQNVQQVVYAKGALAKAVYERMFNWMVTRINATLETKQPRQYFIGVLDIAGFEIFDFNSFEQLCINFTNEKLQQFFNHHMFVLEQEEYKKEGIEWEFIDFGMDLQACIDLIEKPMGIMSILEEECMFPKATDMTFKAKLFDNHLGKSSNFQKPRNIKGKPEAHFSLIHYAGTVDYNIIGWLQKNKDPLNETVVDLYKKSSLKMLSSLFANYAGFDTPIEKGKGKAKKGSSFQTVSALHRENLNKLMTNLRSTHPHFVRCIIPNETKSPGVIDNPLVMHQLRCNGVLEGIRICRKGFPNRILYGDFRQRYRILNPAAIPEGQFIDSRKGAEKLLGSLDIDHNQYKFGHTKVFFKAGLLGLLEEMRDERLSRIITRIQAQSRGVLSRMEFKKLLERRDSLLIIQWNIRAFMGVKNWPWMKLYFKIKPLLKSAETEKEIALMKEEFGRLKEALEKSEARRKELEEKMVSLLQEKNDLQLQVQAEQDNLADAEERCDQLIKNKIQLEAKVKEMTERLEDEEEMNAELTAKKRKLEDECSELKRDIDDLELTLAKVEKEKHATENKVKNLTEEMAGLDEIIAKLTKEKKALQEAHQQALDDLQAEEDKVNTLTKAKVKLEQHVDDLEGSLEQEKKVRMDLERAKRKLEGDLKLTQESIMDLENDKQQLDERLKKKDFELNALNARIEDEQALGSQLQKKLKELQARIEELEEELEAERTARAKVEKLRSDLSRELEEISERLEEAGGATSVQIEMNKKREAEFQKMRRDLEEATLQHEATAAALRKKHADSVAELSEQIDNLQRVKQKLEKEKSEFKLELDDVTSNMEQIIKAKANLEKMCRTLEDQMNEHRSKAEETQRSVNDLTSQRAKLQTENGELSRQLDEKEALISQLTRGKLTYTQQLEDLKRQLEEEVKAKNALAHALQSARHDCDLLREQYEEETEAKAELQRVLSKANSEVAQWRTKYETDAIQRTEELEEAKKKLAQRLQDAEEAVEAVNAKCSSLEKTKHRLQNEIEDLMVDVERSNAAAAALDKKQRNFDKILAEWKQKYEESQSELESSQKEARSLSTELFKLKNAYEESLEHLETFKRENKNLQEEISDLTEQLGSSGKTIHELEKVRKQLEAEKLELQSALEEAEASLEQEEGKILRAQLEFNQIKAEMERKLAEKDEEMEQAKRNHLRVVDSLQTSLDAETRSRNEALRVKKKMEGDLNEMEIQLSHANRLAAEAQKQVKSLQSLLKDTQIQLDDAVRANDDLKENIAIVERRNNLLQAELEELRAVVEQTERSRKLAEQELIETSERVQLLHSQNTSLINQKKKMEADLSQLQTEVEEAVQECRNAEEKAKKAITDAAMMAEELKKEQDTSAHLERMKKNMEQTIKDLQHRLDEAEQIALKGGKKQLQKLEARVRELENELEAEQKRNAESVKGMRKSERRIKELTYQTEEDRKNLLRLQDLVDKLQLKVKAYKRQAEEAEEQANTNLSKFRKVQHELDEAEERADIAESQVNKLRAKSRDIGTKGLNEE
Sequence (P85100 whole entry partner): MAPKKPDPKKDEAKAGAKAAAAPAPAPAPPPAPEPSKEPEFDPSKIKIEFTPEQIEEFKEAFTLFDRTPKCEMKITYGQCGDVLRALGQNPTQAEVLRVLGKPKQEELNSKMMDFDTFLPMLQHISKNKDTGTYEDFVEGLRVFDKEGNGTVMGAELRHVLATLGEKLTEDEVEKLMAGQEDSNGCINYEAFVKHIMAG
Sequence (Q3SZE5 whole entry partner): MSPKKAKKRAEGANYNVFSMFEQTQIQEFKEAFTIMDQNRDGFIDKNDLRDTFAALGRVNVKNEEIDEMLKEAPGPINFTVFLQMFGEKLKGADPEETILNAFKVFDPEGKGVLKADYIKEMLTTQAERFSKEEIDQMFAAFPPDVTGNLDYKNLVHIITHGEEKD
Provide the reading as a plain figure in µM.

q: Which CDMF75 IC15 is listed for `CCc1nc(-c2ccc3c(c2)CC[C@H]3NC(=O)[C@H]2CCC(=O)N2)no1` ?
a: 19.1

q: Which CDMF75 IC15 is listed for `CCc1nc(-c2ccc3c(c2)CC[C@H]3NC(=O)c2cnc(C)s2)no1` ?
a: 0.3

q: Which CDMF75 IC15 is listed for `C[C@@H](O)Cn1cc(C(=O)N[C@@H]2CCc3cc(-c4noc(C5CC5)n4)ccc32)cn1` ?
a: 3.5

###

target: bovine cardiac myofibrils (full-length cardiac myosin ATPase in the native sarcomere) (Bos taurus (Bovine)); assay: Skinned bovine cardiac myofibril ATPase assay (PK/LDH-coupled); conditions: Ca2+ activating to 75% of maximal rate, read-out: CDMF75 IC50
metric_name: IC50
Output should be the measured figure followed by the unit it is expressed in.

{"smiles_input": "CCc1nc(-c2ccc3c(c2)CC[C@H]3NC(=O)c2cnn(C[C@@H](O)CO)c2)no1", "IC50": "6 µM"}
{"smiles_input": "CC(=O)N[C@@H]1COc2cc(-c3noc(C4(C)CC4)n3)ccc21", "IC50": "6.5 µM"}
{"smiles_input": "Cc1nc(-c2ccc3c(c2)CC[C@H]3NC(=O)c2ccc3[nH]c(=O)[nH]c3c2)no1", "IC50": "6.2 µM"}

q: Which IC50 is listed for `CCc1nc(-c2ccc3c(c2)CC[C@H]3NC(=O)c2ccc(C)cn2)no1` ?
a: 5.8 µM

###

target: bovine cardiac myofibrils (full-length cardiac myosin ATPase in the native sarcomere) (Bos taurus (Bovine)); experiment: Skinned bovine cardiac myofibril ATPase assay (PK/LDH-coupled); format: biochemical; conditions: Ca2+ activating to 75% of maximal rate, read-out: CDMF75 IC50
pIC50: −log10 of the molar value.
Measured pIC50 values are reported for all entries that follow.

# count of solved cases: 2
{"compound": "Cn1cnc(C(=O)NC2CCc3cc(-c4noc(C(F)F)n4)ccc32)n1 (stereo not drawn)", "pIC50": "< 4.41"}
{"compound": "CCc1nc(-c2ccc3c(c2)CC[C@H]3NC(=O)[C@@H]2CCC(=O)N2)no1", "pIC50": "< 4.41"}

q: Which pIC50 is listed for `Cc1nc(-c2ccc3c(c2)CC[C@H]3NC(=O)c2nncn2C)no1` ?
a: < 4.41

###

target: bovine cardiac myofibrils (full-length cardiac myosin ATPase in the native sarcomere) (Bos taurus (Bovine), UniProt Q9BE39); assay: Skinned bovine cardiac myofibril ATPase assay (PK/LDH-coupled); assay type: biochemical; details: Ca2+ activating to 75% of maximal rate, concentration giving 15% inhibition
Measured CDMF75 IC15 values are reported for all entries that follow.
Output should be the measured figure followed by the unit it is expressed in.

{"molecule": "Cn1cc(C(=O)N[C@@H]2CCc3cc(-c4nc(C(F)F)no4)ccc32)cn1", "CDMF75 IC15": "2600 nM"}
{"molecule": "CCc1nc(-c2ccc3c(c2)OCC3NC(=O)c2ccnn2C)no1 (centres unmarked)", "CDMF75 IC15": "500 nM"}
{"molecule": "CCc1nc(-c2ccc3c(c2)OC[C@H]3NC(=O)OC)no1", "CDMF75 IC15": "300 nM"}

q: Which CDMF75 IC15 is listed for `Cc1cncc(-c2ccc3c(c2)CC[C@H]3NC(=O)c2ccnn2C)c1` ?
a: 3900 nM

q: Which CDMF75 IC15 is listed for `O=C(N[C@@H]1CCc2cc(-c3noc(C(F)F)n3)ccc21)c1cccc(CO)c1` ?
a: 300 nM

q: Which CDMF75 IC15 is listed for `CC1(C(=O)N[C@@H]2CCc3cc(-c4noc(C5CC5)n4)ccc32)CC1` ?
a: 3800 nM

q: Which CDMF75 IC15 is listed for `COCc1nc(-c2ccc3c(c2)CC[C@H]3NC(=O)c2cccc([C@@H](C)O)c2)no1` ?
a: 2600 nM

q: Which CDMF75 IC15 is listed for `COc1cc(C(=O)N[C@@H]2CCc3cc(-c4noc(C(F)F)n4)ccc32)on1` ?
a: 500 nM

q: Which CDMF75 IC15 is listed for `[2H]C([2H])([2H])c1nc(-c2ccc3c(c2)CC[C@H]3NC(=O)c2cnn(CCOC)c2)no1` ?
a: 2700 nM

q: Which CDMF75 IC15 is listed for `CCc1nc(-c2ccc3c(c2)CC[C@H]3NC(=O)c2nnn(C)c2C)no1` ?
a: 1600 nM

q: Which CDMF75 IC15 is listed for `CCc1nc(-c2ccc3c(c2)CC[C@H]3NC(=O)c2cccc(CCO)c2)no1` ?
a: 500 nM

###

biological target: bovine cardiac myofibrils (full-length cardiac myosin ATPase in the native sarcomere) (Bos taurus (Bovine)); experiment: Skinned bovine cardiac myofibril ATPase assay (PK/LDH-coupled); settings: Ca2+ activating to 75% of maximal rate, read-out: CDMF75 IC50
metric_name: IC50 (nM)
Provide the reading as a plain figure in nM.

{"smiles_input": "CCc1nc(-c2ccc3c(c2)CC[C@H]3NC(=O)c2ccnc(C)c2)no1", "metric_name": "IC50", "experimental_result": 1300}

# evaluate next
q: Which IC50 is listed for `CCc1nc(-c2ccc3c(c2)CC[C@H]3NC(=O)OC2COC2)no1` ?
a: 1700

###

biological target: bovine cardiac myofibrils (full-length cardiac myosin ATPase in the native sarcomere) (Bos taurus (Bovine)); assay: Skinned bovine cardiac myofibril ATPase assay (PK/LDH-coupled); conditions: Ca2+ activating to 75% of maximal rate, read-out: CDMF75 IC50
Mark each entry Met if its IC50 sits below 2 µM, and Not met for all others.

q: Hello, is IC50 of the following compound strictly smaller than 2 µM? CC(=O)OCc1nc(-c2ccc3c(c2)CCC3NC(=O)c2cn(C)nc2C)no1 (centres unmarked)
a: Not met

q: Hello, is IC50 of the following compound strictly smaller than 2 µM? `O=C(N[C@@H]1CCc2cc(-c3noc(C(F)F)n3)ccc21)c1ocnc1C(F)(F)F`
a: Met

q: Hello, is IC50 of the following compound strictly smaller than 2 µM? `Cc1ncc(C(=O)N[C@@H]2CCc3cc(-c4noc(C(C)C)n4)ccc32)o1`
a: Not met

q: Hello, is IC50 of the following compound strictly smaller than 2 µM? `CCc1nc(-c2cc(O)c3c(c2)CC[C@H]3NC(=O)c2cnn(C)c2)no1`
a: Met

q: Hello, is IC50 of the following compound strictly smaller than 2 µM? CCc1nc(-c2ccc3c(c2)CC[C@H]3NC(=O)c2cnn(C)c2C)no1 [Compound 571]
a: Met

###

biological target: bovine cardiac myofibrils (full-length cardiac myosin ATPase in the native sarcomere) (Bos taurus (Bovine)); assay: Skinned bovine cardiac myofibril ATPase assay (PK/LDH-coupled); assay type: biochemical; conditions: Ca2+ activating to 75% of maximal rate, concentration giving 15% inhibition
Please mark yes if the recorded CDMF75 IC15 is equal to or greater than 400 nM, and no if it falls below.

q: Check if CDMF75 IC15 >= 400 nM (inclusive). Item: `CCc1nc(-c2ccc3c(c2)CC[C@H]3NC(=O)c2cnn(CC(C)(C)O)c2)no1`
a: yes

q: Check if CDMF75 IC15 >= 400 nM (inclusive). Item: CCc1nc(-c2cnc3c(c2)CCC3NC(=O)c2ccccc2)no1 (centres unmarked)
a: yes

q: Check if CDMF75 IC15 >= 400 nM (inclusive). Item: `Cc1ncoc1C(=O)N[C@@H]1CCc2cc(-c3noc(C4CCC4)n3)ccc21`
a: no

q: Check if CDMF75 IC15 >= 400 nM (inclusive). Item: `CCc1nc(-c2ccc3c(c2)CC[C@H]3NC(=O)c2csc(C)n2)no1`
a: yes

###

biological target: bovine cardiac myofibrils (full-length cardiac myosin ATPase in the native sarcomere) (Bos taurus (Bovine)); assay: Skinned bovine cardiac myofibril ATPase assay (PK/LDH-coupled); assay type: biochemical; settings: Ca2+ activating to 75% of maximal rate, concentration giving 15% inhibition
Measured CDMF75 IC15 values are reported for all entries that follow.
Provide the reading as a plain figure in nM.

# count of solved cases: 3
{"compound": "Cc1cc(C(=O)N[C@@H]2CCc3cc(-c4cc(C(F)F)on4)ccc32)ccn1", "experimental_result": 500}
{"compound": "O=C1CC[C@@H](C(=O)N[C@@H]2CCc3cc(-c4noc(C5CC5)n4)ccc32)N1", "experimental_result": 39200}
{"compound": "O=C(N[C@@H]1CCc2cc(-c3noc(C(F)F)n3)ccc21)C1COC1", "experimental_result": 10600}

# evaluate next
q: Which CDMF75 IC15 is listed for `Cc1noc(-c2ccc3c(c2)CC[C@H]3NC(=O)c2cccc(CO)c2)n1` ?
a: 600
